Biological target: human muscarinic M1 receptor (Homo sapiens, UniProt P11229)
Sequence (P11229 1-460): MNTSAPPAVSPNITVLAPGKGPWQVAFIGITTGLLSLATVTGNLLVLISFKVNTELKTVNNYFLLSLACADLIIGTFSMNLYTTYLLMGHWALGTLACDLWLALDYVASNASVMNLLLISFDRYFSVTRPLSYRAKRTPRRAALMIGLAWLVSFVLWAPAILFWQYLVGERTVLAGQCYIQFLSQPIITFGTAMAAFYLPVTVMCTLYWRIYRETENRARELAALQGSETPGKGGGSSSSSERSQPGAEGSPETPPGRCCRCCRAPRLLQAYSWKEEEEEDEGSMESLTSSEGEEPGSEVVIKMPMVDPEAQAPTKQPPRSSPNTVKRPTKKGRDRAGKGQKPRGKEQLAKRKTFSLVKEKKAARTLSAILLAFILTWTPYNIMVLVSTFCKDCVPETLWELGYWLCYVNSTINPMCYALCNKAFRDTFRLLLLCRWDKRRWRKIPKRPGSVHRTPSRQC
Test: Alphascreen Surefire phospho-ERK1/2 functional assay, M1
Type: cell-based
Details: CHO cells stably expressing human M1, read-out: pEC50 M1 (converted)
Readout Type: EC50 (nM)

Compound	Experimental Value
CCCC(=O)N1C2CCC1CC(N1CCC3(CC1)CNC(=O)C3)C2 (single isomer, unassigned) [Example 2-6 Isomer 2]	501
CCCN1CC2(CCN(C3CC4CCC(C3)N4C(=O)OCC)CC2)CC1=O (single isomer, unassigned) [Example 2-25 Isomer 2]	251
CCOC(=O)N1C2CCC1CC(N1CCCC3(CC1)CNC(=O)O3)C2 (single isomer, unassigned) [Example 9-2 Isomer 3]	501
CCOC(=O)N1CC2CC(N3CCC4(CC3)CNC(=O)O4)CC1C2 (single isomer, unassigned) [Example 6-3 Isomer 2]	25.1
CCOC(=O)N1CC2CCC1CC2N1CCC2(CC1)CNC(=O)C2 (single isomer, unassigned) [Example 3-1 Isomer 3]	39.8
[2H]C([2H])([2H])COC(=O)N1C2CCC1CC(N1CCC3(CC1)CNC(=O)C3)C2 (single isomer, unassigned) [Example 2-31 Isomer 2]	25.1
C#CCOC(=O)N1C2CCC1CC(N1CCC3(CC1)CNC(=O)C3)C2 (single isomer, unassigned) [Example 2-4 Isomer 1]	100
CCOC(=O)N1C2CCC1CC(N1CCCC3(CC1)CNC(=O)O3)C2 (single isomer, unassigned) [Example 9-2 Isomer 4]	10
CCOC(=O)N1C2CCC1CC(N1CCC3(CC1)OC(=O)NC3C(C)C)C2 (single isomer, unassigned) [Example 2-17 Isomer 1]	31.6
CCOC(=O)N1C2CCC1C(F)C(N1CCC3(CC1)CNC(=O)C3)C2 (single isomer, unassigned) [Example 2-11 Isomer 1]	631
CCOC(=O)N1C2CCCC1CC(N1CCC3(CC1)CNC(=O)C3)C2 (single isomer, unassigned) [Example 5-1 Isomer 2]	158
CCOC(=O)N1C2CCC1CC(N1CCC3(CC1)OC(=O)NC3(C)C)C2 (single isomer, unassigned) [Example 2-18 Isomer 1]	251
CCOC(=O)N1C2CC[C@@H]1C[C@H](N1CCC3(CC1)CC(=O)N(O)C3)C2 [Example 2-24]	63.1
[2H]C([2H])([2H])C([2H])([2H])OC(=O)N1C2CCC1CC(N1CCC3(CC1)CNC(=O)C3)C2 (single isomer, unassigned) [Example 2-32 Isomer 1]	79.4

----------
target: human muscarinic M4 receptor (Homo sapiens, UniProt P08173); construct: expressed in transfected cells; assay: Alphascreen Surefire phospho-ERK1/2 functional assay, M4; type: cell-based; conditions: CHO cells stably expressing human M4, relative to ACh
Sequence (P08173 whole entry): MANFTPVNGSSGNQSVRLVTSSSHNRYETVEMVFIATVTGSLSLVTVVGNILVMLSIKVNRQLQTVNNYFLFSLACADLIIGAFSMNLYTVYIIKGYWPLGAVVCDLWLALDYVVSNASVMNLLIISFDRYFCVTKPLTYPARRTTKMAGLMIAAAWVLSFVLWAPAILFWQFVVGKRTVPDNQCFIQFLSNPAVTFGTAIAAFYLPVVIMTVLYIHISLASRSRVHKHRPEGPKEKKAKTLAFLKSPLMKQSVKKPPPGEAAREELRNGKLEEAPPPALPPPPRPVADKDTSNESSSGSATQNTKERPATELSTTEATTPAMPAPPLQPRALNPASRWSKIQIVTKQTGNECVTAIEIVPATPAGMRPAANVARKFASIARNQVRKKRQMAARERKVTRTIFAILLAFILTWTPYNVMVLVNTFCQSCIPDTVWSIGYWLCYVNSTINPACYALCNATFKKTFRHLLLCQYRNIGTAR

Molecule	Units Text	% Emax cf. ACh, M4
COC(=O)N1CC2CC(N3CCC4(CC3)CNC(=O)C4)CC1C2 (single isomer, unassigned) [Example 6-1 Isomer 2]	%	33
[2H]C([2H])([2H])C([2H])([2H])OC(=O)N1C2CCC1CC(N1CCC3(CC1)CNC(=O)C3)C2 (single isomer, unassigned) [Example 2-32 Isomer 2]	%	48
C#CCOC(=O)N1C2CCC1CC(N1CCC3(CC1)CNC(=O)C3)C2 (single isomer, unassigned) [Example 2-4 Isomer 2]	%	53
CC(C)OC(=O)N1C2CCC1CC(N1CCC3(CC1)CNC(=O)C3)C2 (single isomer, unassigned) [Example 2-33 Isomer 2]	%	25
CCOC(=O)N1CC2CCC1CC2N1CCC2(CC1)CNC(=O)O2 (single isomer, unassigned) [Example 3-2 Isomer 2]	%	36
[2H]C([2H])(C)OC(=O)N1C2CCC1CC(N1CCC3(CC1)CNC(=O)C3)C2 (single isomer, unassigned) [Example 2-30 Isomer 2]	%	29
CCOC(=O)N1C2CCC1CC(N1CCC3(CC1)CNC(=O)O3)C2 (single isomer, unassigned) [Example 2-14 Isomer 2]	%	60
CCSC(=O)N1C2CCC1CC(N1CCC3(CC1)CNC(=O)C3)C2 (single isomer, unassigned) [Example 2-35 Isomer 2]	%	10
C#CCOC(=O)N1C2CCCC1CC(N1CCC3(CC1)CNC(=O)C3)C2 (single isomer, unassigned) [Example 5-2 Isomer 2]	%	20
CCOC(=O)N1C2CCC1C(F)C(N1CCC3(CC1)CNC(=O)C3)C2 (single isomer, unassigned) [Example 2-11 Isomer 2]	%	55

----------
# key: entry, value: Emax
Target: human muscarinic M1 receptor (Homo sapiens, UniProt P11229)
Sequence (P11229 1-460): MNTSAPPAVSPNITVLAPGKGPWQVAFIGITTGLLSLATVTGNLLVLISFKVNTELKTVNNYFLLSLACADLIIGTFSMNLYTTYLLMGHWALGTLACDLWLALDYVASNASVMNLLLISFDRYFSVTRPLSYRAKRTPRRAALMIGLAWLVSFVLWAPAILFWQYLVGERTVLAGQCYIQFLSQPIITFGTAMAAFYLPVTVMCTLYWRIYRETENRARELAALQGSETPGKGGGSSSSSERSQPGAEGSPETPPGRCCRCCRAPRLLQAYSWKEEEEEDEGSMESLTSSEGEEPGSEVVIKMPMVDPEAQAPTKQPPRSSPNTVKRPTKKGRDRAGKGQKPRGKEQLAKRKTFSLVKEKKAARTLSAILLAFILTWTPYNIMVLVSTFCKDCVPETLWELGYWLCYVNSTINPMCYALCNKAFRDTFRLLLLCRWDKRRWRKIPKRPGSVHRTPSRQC
Assay: Alphascreen Surefire phospho-ERK1/2 functional assay, M1
Type: cell-based
Details: CHO, read-out: % Emax cf. ACh, M1, CHO cells stably expressing human M1, relative to ACh
Experimental: ERK1/2 phosphorylation is a downstream consequence of both Gq/11 and Gi/o protein coupled receptor activation, making it highly suitable for the assessment of M1, M3 (Gq/11 coupled) and M2, M4 receptors (Gi/o coupled), rather than using different assay formats for different receptor subtypes. […] Plates were incubated for 2 h with gentle agitation in the dark and then read on a PHERAstar plate reader. pEC50 and Emax figures were calculated from the resulting data for each receptor subtype.

Molecule	Emax (%)
CCCN1CC2(CCN(C3CC4CCC(C3)N4C(=O)OCC)CC2)CC1=O (single isomer, unassigned) [Example 2-25 Isomer 2]	53
CCOC(=O)N1C2CCC1CC(N1CCCC3(CC1)CNC(=O)C3)C2 (single isomer, unassigned) [Example 9-1 Isomer 2]	103
CCOC(=O)N1C2CCCC1CC(N1CCC3(CC1)CNC(=O)O3)C2 (single isomer, unassigned) [Example 5-4 Isomer 1]	76
CCOC(=O)N1C2CCC1CC(N1CCC3(CC1)CNC(=O)C3)C2 (single isomer, unassigned) [Example 2-2 Isomer 2]	86

----------
target: human muscarinic M2 receptor (Homo sapiens); experiment: Alphascreen Surefire phospho-ERK1/2 functional assay, M2; assay type: cell-based; settings: CHO, read-out: % Emax cf. ACh, M2, CHO cells stably expressing human M2, relative to ACh
Sequence (P08172 whole entry): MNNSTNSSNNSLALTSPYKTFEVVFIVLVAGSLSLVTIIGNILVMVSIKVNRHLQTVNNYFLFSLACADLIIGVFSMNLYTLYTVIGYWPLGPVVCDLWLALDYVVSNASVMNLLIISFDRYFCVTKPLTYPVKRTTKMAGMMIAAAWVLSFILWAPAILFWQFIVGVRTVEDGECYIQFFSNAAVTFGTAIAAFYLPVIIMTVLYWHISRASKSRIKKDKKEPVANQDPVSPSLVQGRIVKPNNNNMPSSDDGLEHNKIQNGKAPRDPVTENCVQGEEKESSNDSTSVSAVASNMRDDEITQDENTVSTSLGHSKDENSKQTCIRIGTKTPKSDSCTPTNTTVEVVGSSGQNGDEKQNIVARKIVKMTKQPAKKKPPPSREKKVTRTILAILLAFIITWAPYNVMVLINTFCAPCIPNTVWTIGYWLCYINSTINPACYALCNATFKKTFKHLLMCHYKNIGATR
# key: entry, value: Emax
Readout Type: Emax (%)

Molecule	Readout Type	Experimental Value
CCOC(=O)N1C2CCC1CC(N1CCC3(CC1)CC(=O)NC3CC)C2 (single isomer, unassigned) [Example 2-8 Isomer 1]	Emax	4
CCOC(=O)N1C2CCC1CC(N1CCC3(CC1)OC(=O)NC3C(C)C)C2 (single isomer, unassigned) [Example 2-17 Isomer 1]	Emax	2
[2H]C([2H])(C)OC(=O)N1C2CCC1CC(N1CCC3(CC1)CNC(=O)C3)C2 (single isomer, unassigned) [Example 2-30 Isomer 2]	Emax	9
COC(=O)N1CC2CC(N3CCC4(CC3)CNC(=O)C4)CC1C2 (single isomer, unassigned) [Example 6-1 Isomer 2]	Emax	18
CCOC(=O)N1CC2CC(N3CCC4(CC3)CNC(=O)C4)CC1C2 (single isomer, unassigned) [Example 6-2 Isomer 2]	Emax	30
[2H]C([2H])([2H])COC(=O)N1C2CCC1CC(N1CCC3(CC1)CNC(=O)C3)C2 (single isomer, unassigned) [Example 2-31 Isomer 2]	Emax	11
C#CCOC(=O)N1C2CCCC1CC(N1CCC3(CC1)CNC(=O)C3)C2 (single isomer, unassigned) [Example 5-2 Isomer 1]	Emax	3
CCOC(=O)N1C2CCCC1CC(N1CCC3(CC1)CNC(=O)O3)C2 (single isomer, unassigned) [Example 5-4 Isomer 2]	Emax	2
CC#CCOC(=O)N1[C@@H]2CCC[C@H]1CC(N1CCC3(CC1)CNC(=O)C3)C2 (mixture of isomers)	Emax	7
CCCN1CC2(CCN(C3CC4CCC(C3)N4C(=O)OCC)CC2)CC1=O (single isomer, unassigned) [Example 2-25 Isomer 2]	Emax	15
CCOC(=O)N1C2CCC1CC(N1CCCC3(CC1)CNC(=O)C3)C2 (single isomer, unassigned) [Example 9-1 Isomer 2]	Emax	12
O=C1CC2(CCN(C3CC4CCC(C3)N4C(=O)OCCF)CC2)CN1 (single isomer, unassigned) [Example 2-3 Isomer 2]	Emax	4
CCOC(=O)N1C2CCC1CC(N1CCC3(CC1)OC(=O)NC3CC)C2 (single isomer, unassigned) [Example 2-16 Isomer 1]	Emax	3
